# Target system: KRAS G12C-BRAF complex (Homo sapiens (Human), UniProt P01116+P62937, G12C)
# Sequence (P01116-2 other isoform, or with tags, fused parts or gaps G12C): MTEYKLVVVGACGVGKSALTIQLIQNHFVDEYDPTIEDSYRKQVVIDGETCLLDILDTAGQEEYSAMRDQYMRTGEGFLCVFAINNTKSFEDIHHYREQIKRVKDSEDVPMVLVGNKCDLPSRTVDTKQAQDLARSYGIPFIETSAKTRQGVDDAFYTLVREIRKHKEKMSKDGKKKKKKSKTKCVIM
# Sequence (P62937 whole entry): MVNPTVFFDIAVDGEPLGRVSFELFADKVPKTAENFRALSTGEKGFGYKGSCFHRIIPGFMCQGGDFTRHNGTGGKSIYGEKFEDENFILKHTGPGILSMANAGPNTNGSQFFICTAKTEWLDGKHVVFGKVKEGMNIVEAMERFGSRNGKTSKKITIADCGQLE
# Experiment summary: KRAS-BRAF with CYPA (500 nM) interaction assay (TR-FRET), G12C
# Assay type: biochemical
Quantity: pIC50
// pIC50 is dimensionless: -log10 of concentration (M)

Q: # return recorded pIC50 for entry CO[C@@H](C)c1ncc(N2CCN(C)CC2)cc1-c1c2c3cc(c(F)cc3n1CC(F)(F)F)-c1csc(n1)C[C@H](NC(=O)[C@H](C(C)C)N(C)C(=O)N1CC(N(C)C)C1)C(=O)N1CCC[C@H](N1)C(=O)OCC(C)(C)C2 (atropisomer, axis not shown; (M))
A: 7.34

Q: # return recorded pIC50 for entry CCn1c(-c2cc(N3CCN(CC(F)(F)F)CC3)cnc2[C@H](C)OC)c2c3cc(c(F)cc31)-c1csc(n1)C[C@H](NC(=O)[C@H](C(C)C)N(C)C(=O)N1CCOCC1)C(=O)N1CCC[C@H](N1)C(=O)OCC(C)(C)C2 (atropisomer, axis not shown; (M))
A: 7.31
